- TEST_SUMMARY: LAP4-GFP modulation potency in yeast, dose response, cell-based, MLPCN hits, flow cytometry (AID 2745);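 further: yeast exposed to compound for three hours at 30 degrees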
- ASSAY_CONDITIONS: S. cerevisiae LAP4-GFP reporter, flow cytometry fluorescence; at 33 µM (top of the series)
The source made the active and inactive calls. How the calls were made is not given here.
Entries and their measured LAP4-GFP fluorescence (kMESF) follow.

# annotated cases, reported LAP4-GFP fluorescence (kMESF) shown
COMPOUND: CCN(CC(=O)Nc1cc(S(=O)(=O)N2CCOCC2)ccc1Cl)Cc1ccccc1
LAP4-GFP fluorescence (kMESF): 3.97 kMESF (inactive)

COMPOUND: COc1cc(/C=C/[N+](=O)[O-])ccc1O
LAP4-GFP fluorescence (kMESF): 7.18 kMESF (inactive)

Consider the compound COc1ccccc1NC1=C(Cl)C(=O)N(c2ccccc2)C1=O and give its measured LAP4-GFP fluorescence (kMESF).
2.98 kMESF (inactive)

Consider the compound CCOC(=O)CS(=O)(=O)c1nc(-c2ccc(F)cc2)cc(C(F)(F)F)n1 and give its measured LAP4-GFP fluorescence (kMESF).
11.2 kMESF (inactive)

###

- TEST_SUMMARY: LAP4-GFP modulation potency in yeast, dose response, cell-based, MLPCN hits, flow cytometry (AID 2745);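 further: yeast exposed to compound for three hours at 30 degrees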
- ASSAY_CONDITIONS: S. cerevisiae LAP4-GFP reporter, flow cytometry fluorescence; at 33 µM (top of the series)
Active and inactive are the calls of the source. No rule for the calls is given here.
Entries and their measured LAP4-GFP fluorescence (kMESF) follow.

SAMPLE_SMILES: CC(=O)Oc1cccc(N2C(=O)c3cccc4c([N+](=O)[O-])ccc(c34)C2=O)c1
REPORTED_MEASUREMENT: 5.16 kMESF (inactive)

SAMPLE_SMILES: Cc1ccc(NC(=O)c2nc(S(=O)(=O)Cc3ccccc3)ncc2Cl)cc1
REPORTED_MEASUREMENT: 9.01 kMESF (inactive)

SAMPLE_SMILES: COc1ccccc1N1C(=O)c2cccc3c(C(=O)O)ccc(c23)C1=O
REPORTED_MEASUREMENT: 6.85 kMESF (inactive)

SAMPLE_SMILES: O=C1C(Cl)=C(NCCc2ccccc2)C(=O)N1CCc1ccccc1
REPORTED_MEASUREMENT: 5.91 kMESF (inactive)

SAMPLE_SMILES: CCc1ccc(/C=C/C(=O)c2cc(Br)ccc(=O)c2O)cc1
REPORTED_MEASUREMENT: 9 kMESF (inactive)

Consider the compound CCC(=O)Oc1oc(-c2ccccc2)nc1C=Nc1ccc(C)cc1 and give its measured LAP4-GFP fluorescence (kMESF).
4.73 kMESF (inactive)

Consider the compound O=C1C(Cl)=C(Nc2ccccc2O)C(=O)N1c1ccccc1 and give its measured LAP4-GFP fluorescence (kMESF).
4.81 kMESF (inactive)

Consider the compound O=C1c2ccccc2C(=O)N1OS(=O)(=O)c1ccc(F)cc1 and give its measured LAP4-GFP fluorescence (kMESF).
9.97 kMESF (inactive)

Consider the compound O=c1c2cc(Br)ccc2nc(-c2ccc([N+](=O)[O-])cc2)n1O and give its measured LAP4-GFP fluorescence (kMESF).
6.81 kMESF (inactive)

Consider the compound Oc1c(Br)cc(Br)cc1C=Nc1ccc2c(c1)OCO2 and give its measured LAP4-GFP fluorescence (kMESF).
10.8 kMESF (inactive)

Consider the compound CC1=C/C(=N\OS(=O)(=O)c2ccccc2)C(C)=CC1=O and give its measured LAP4-GFP fluorescence (kMESF).
4.1 kMESF (inactive)

###

- TEST_SUMMARY: LAP4-GFP modulation potency in yeast, dose response, cell-based, MLPCN hits, flow cytometry (AID 2745);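 further: yeast exposed to compound for three hours at 30 degrees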
- ASSAY_CONDITIONS: S. cerevisiae LAP4-GFP reporter, flow cytometry fluorescence; at 33 µM (top of the series)
Activity calls are given as the source filed them. How the calls were made is not given here.
OBSERVED_PROPERTY: LAP4-GFP fluorescence (kMESF)

# annotated cases, reported LAP4-GFP fluorescence (kMESF) shown
COMPOUND: Cc1cccc(NC(c2ccc(C)s2)c2ccc3ccc(C)nc3c2O)n1 (stereo unspecified)
OBSERVED_PROPERTY: LAP4-GFP fluorescence (kMESF)
REPORTED_MEASUREMENT: 16.8 kMESF (inactive)
//
COMPOUND: COc1cccc2c(=O)c(C(=O)NCc3cccs3)c[nH]c12
OBSERVED_PROPERTY: LAP4-GFP fluorescence (kMESF)
REPORTED_MEASUREMENT: 2.13 kMESF (inactive)
//
COMPOUND: COc1cc(NC(=O)c2cccc(C)c2)ccc1NC(=O)c1cc2ccccc2o1
OBSERVED_PROPERTY: LAP4-GFP fluorescence (kMESF)
REPORTED_MEASUREMENT: 3.31 kMESF (inactive)
//
COMPOUND: CN(O)/C=c1/ccc2c(n1)C(=O)C=CC=2
OBSERVED_PROPERTY: LAP4-GFP fluorescence (kMESF)
REPORTED_MEASUREMENT: 17.5 kMESF (inactive)
//
COMPOUND: N/C(=N\OC(=O)c1ccccc1Cl)c1ccc(Cl)cc1
OBSERVED_PROPERTY: LAP4-GFP fluorescence (kMESF)
REPORTED_MEASUREMENT: 11.3 kMESF (inactive)

Consider the compound CC(OC(=O)c1ccco1)C(=O)Nc1nc(-c2ccccc2)cs1 (stereo unspecified) and give its measured LAP4-GFP fluorescence (kMESF).
3.33 kMESF (inactive)

###

- TEST_SUMMARY: LAP4-GFP modulation potency in yeast, dose response, cell-based, MLPCN hits, flow cytometry (AID 2745);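 further: yeast exposed to compound for three hours at 30 degrees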
- ASSAY_CONDITIONS: S. cerevisiae LAP4-GFP reporter, flow cytometry fluorescence; at 33 µM (top of the series)
Active and inactive are the calls of the source. How the calls were made is not given here.
OBSERVED_PROPERTY: LAP4-GFP fluorescence (kMESF)

COMPOUND: COc1ccccc1C(=O)NNC(=S)NC(=O)c1ccco1
LAP4-GFP fluorescence (kMESF): 13.2 kMESF (inactive)
--
COMPOUND: O=C(COc1ccccc1)NNC(=S)NC(=O)c1ccccc1
LAP4-GFP fluorescence (kMESF): 4.36 kMESF (inactive)
--
COMPOUND: O=C(COc1ccccc1)N1CCN(c2ncnc3c2cnn3-c2ccccc2)CC1
LAP4-GFP fluorescence (kMESF): 3.38 kMESF (inactive)

Consider the compound Cc1ccc(C2=NN(S(C)(=O)=O)C(c3ccc4c(c3)OCO4)C2)cc1 (stereo unspecified) and give its measured LAP4-GFP fluorescence (kMESF).
4.78 kMESF (inactive)

Consider the compound O=C1C=CC(=O)N1c1ccc(OC(F)F)cc1 and give its measured LAP4-GFP fluorescence (kMESF).
4.2 kMESF (inactive)

Consider the compound Oc1ccc(N=Nc2ccccc2)o1 and give its measured LAP4-GFP fluorescence (kMESF).
18.8 kMESF (inactive)

Consider the compound Cc1ccccc1[C@]1(C)ON(c2ccccc2C(F)(F)F)C1=O and give its measured LAP4-GFP fluorescence (kMESF).
3.24 kMESF (inactive)

###

- TEST_SUMMARY: LAP4-GFP modulation potency in yeast, dose response, cell-based, MLPCN hits, flow cytometry (AID 2745);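 further: yeast exposed to compound for three hours at 30 degrees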
- ASSAY_CONDITIONS: S. cerevisiae LAP4-GFP reporter, flow cytometry fluorescence; at 33 µM (top of the series)
Calls of active or inactive are those of the source. No rule for the calls is given here.
Entries and their measured LAP4-GFP fluorescence (kMESF) follow.

COMPOUND: COc1ccccc1N=Cc1nc(-c2ccccc2)oc1OC(C)=O
OBSERVED_PROPERTY: LAP4-GFP fluorescence (kMESF)
REPORTED_MEASUREMENT: 8.6 kMESF (inactive)

Consider the compound Oc1c(C(Nc2cccc(C(F)(F)F)c2)c2ccncc2)ccc2cccnc12 (stereo not drawn) and give its measured LAP4-GFP fluorescence (kMESF).
11.8 kMESF (inactive)

Consider the compound COc1cccc(N=Cc2nc(-c3ccccc3)oc2OC(C)=O)c1 and give its measured LAP4-GFP fluorescence (kMESF).
12.8 kMESF (inactive)

Consider the compound COc1cc(/C=C2/C(=O)c3cccc([N+](=O)[O-])c3C2=O)c(Br)cc1O and give its measured LAP4-GFP fluorescence (kMESF).
3.64 kMESF (inactive)

Consider the compound CC(=O)Oc1ccc(/C=c2\sc3ncnn3c2=O)cc1 and give its measured LAP4-GFP fluorescence (kMESF).
10.1 kMESF (inactive)

Consider the compound O=C(Nc1ccc(O)cc1)C1CCCN1S(=O)(=O)c1ccc(F)cc1 (stereo not drawn) and give its measured LAP4-GFP fluorescence (kMESF).
3.13 kMESF (inactive)

Consider the compound O=C1c2ccccc2C(=O)N1OS(=O)(=O)c1ccccc1 and give its measured LAP4-GFP fluorescence (kMESF).
8.7 kMESF (inactive)

###

- TEST_SUMMARY: LAP4-GFP modulation potency in yeast, dose response, cell-based, MLPCN hits, flow cytometry (AID 2745);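 further: yeast exposed to compound for three hours at 30 degrees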
- ASSAY_CONDITIONS: S. cerevisiae LAP4-GFP reporter, flow cytometry fluorescence; at 33 µM (top of the series)
Calls of active or inactive are those of the source. The rule behind the calls is not given here.
Entries and their measured LAP4-GFP fluorescence (kMESF) follow.

COMPOUND: O=C(NCc1ccc2c(c1)OCO2)c1nc(S(=O)(=O)Cc2ccccc2)ncc1Cl
REPORTED_MEASUREMENT: 4.7 kMESF (inactive)

Consider the compound [O-][n+]1cccc2c(Br)cc(Br)c(O)c21 and give its measured LAP4-GFP fluorescence (kMESF).
12.9 kMESF (inactive)

Consider the compound Cc1ccc2c(nc3s/c(=C\c4ccc(-c5ccccc5C(=O)O)o4)c(=O)n32)c1C and give its measured LAP4-GFP fluorescence (kMESF).
15.5 kMESF (inactive)

Consider the compound Cc1c(NC2=C(Cl)C(=O)N(c3ccccc3Cl)C2=O)c(=O)n(-c2ccccc2)n1C and give its measured LAP4-GFP fluorescence (kMESF).
3.78 kMESF (inactive)

Consider the compound CCCN1CCc2c(sc(NC(=S)NC(=O)c3ccccc3)c2C#N)C1 and give its measured LAP4-GFP fluorescence (kMESF).
7.91 kMESF (inactive)

Consider the compound CCCc1cc(=O)oc2cc(C)cc(OCC(=O)NC3CC3)c12 and give its measured LAP4-GFP fluorescence (kMESF).
3.74 kMESF (inactive)
